Let's look at some compounds and their measured pIC50.
- tested-on: α4β1 integrin (Homo sapiens, UniProt P05556+P13612)
- Construct: endogenous in cells; host or cells: Ramos cells
- Sequence (P13612 34-1032): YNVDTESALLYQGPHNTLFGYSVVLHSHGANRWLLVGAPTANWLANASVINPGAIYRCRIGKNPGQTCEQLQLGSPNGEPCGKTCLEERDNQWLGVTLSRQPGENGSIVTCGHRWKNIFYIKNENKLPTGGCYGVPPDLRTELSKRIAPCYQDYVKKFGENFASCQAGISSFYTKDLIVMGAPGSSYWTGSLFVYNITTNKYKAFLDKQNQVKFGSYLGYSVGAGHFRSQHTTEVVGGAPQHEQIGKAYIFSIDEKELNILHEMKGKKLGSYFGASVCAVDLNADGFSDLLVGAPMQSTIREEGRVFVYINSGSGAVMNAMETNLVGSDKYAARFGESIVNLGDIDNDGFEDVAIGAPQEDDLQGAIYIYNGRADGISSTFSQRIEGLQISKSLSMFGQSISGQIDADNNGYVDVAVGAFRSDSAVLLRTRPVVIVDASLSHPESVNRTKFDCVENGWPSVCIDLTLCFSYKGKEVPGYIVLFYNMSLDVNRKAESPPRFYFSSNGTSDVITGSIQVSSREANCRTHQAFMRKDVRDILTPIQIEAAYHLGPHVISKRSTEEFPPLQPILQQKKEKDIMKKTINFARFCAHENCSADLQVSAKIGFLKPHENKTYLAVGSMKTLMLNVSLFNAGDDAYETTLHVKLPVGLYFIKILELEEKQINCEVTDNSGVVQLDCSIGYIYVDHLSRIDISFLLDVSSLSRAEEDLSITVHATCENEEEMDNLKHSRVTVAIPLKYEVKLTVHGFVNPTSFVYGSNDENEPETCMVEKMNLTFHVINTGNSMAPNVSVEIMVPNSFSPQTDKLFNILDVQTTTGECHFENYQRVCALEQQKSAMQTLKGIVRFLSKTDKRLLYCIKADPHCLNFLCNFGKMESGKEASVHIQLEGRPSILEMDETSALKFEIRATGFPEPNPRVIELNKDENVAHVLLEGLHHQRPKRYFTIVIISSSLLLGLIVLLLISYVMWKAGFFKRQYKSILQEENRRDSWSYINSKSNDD
- Sequence (P05556 21-798): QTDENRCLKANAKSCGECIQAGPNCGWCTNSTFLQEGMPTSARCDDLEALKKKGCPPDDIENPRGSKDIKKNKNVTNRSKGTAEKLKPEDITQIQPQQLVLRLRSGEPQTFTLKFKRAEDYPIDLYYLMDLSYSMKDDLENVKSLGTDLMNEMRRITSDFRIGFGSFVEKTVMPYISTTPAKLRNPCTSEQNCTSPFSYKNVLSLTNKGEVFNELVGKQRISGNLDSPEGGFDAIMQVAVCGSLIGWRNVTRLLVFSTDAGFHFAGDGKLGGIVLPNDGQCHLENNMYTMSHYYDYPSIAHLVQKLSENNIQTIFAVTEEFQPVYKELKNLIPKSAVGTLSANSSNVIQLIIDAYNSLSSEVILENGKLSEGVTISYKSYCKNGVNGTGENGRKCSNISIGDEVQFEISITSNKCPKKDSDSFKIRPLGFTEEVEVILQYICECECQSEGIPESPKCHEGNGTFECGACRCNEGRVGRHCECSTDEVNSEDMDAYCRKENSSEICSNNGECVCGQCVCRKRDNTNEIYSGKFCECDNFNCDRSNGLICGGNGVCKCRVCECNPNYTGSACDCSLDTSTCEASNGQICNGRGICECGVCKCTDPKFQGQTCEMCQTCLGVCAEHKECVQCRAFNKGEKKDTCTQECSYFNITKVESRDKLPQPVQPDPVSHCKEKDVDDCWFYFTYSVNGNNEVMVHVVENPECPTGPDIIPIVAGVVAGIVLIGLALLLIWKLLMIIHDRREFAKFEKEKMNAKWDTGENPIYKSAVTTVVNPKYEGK
- assay-notes: Inhibition of adhesion of calcein AM-labeled Ramos cells to CS1 (fibronectin) peptide-conjugated ovalbumin
- Assay type: cell-based
- condition-set: Table 1; Ramos cell adhesion to CS1-conjugated ovalbumin, 30 minutes at 37° C.
pIC50: −log10 of the molar value.
measured-parameter: pIC50

compound | tested-on | measured-parameter | reported-result
CCCCC(C(=O)N[C@@H](CC(=O)O)c1ccc2c(c1)CCO2)n1cc(C)cc(Cc2ccccc2)c1=O (mixture of isomers) [Compound 12] | α4β1 integrin (Homo sapiens, UniProt P05556+P13612) | pIC50 | 7.40
CCCCC(C(=O)N[C@@H](CC(=O)O)c1ccc(F)cc1)n1cc(C)cc(Cc2ccccc2)c1=O (mixture of isomers) [Compound 14] | α4β1 integrin (Homo sapiens, UniProt P05556+P13612) | pIC50 | 6.82
CCCCC(C(=O)N[C@@H](CC(=O)O)c1ccc2c(c1)OCO2)n1cc(C)cc(Cc2ccccc2)c1=O (mixture of isomers) [Compound 8] | α4β1 integrin (Homo sapiens, UniProt P05556+P13612) | pIC50 | 8.15
CCCCC(C(=O)N[C@@H](CC(=O)O)c1ccc2c(c1)OCO2)n1cc(C)cc(Cc2ccc(C)cc2)c1=O (mixture of isomers) [Compound 16] | α4β1 integrin (Homo sapiens, UniProt P05556+P13612) | pIC50 | 7.46
CCCCC(C(=O)N[C@@H](CC(=O)O)c1ccc(C)cc1)n1cc(C)cc(Cc2ccccc2)c1=O (mixture of isomers) [Compound 13] | α4β1 integrin (Homo sapiens, UniProt P05556+P13612) | pIC50 | 7.15
CCCCC(C(=O)N[C@@H](CC(=O)O)c1ccc2c(c1)OCO2)n1cc(C)cc(Cc2cccc(Cl)c2)c1=O (mixture of isomers) [Compound 19] | α4β1 integrin (Homo sapiens, UniProt P05556+P13612) | pIC50 | 8.22

* * *

- tested-on: α4β1 integrin (Homo sapiens, UniProt P05556+P13612)
- Construct: endogenous in cells; host or cells: Ramos cells
- assay-notes: Inhibition of adhesion of calcein AM-labeled Ramos cells to CS1 (fibronectin) peptide-conjugated ovalbumin
- Type: cell-based
- condition-set: Table 4; Ramos cell adhesion to CS1-conjugated ovalbumin, 30 minutes at 37° C.
pIC50: −log10 of the molar value.
Mark condition met for reported pIC50 of 7 or greater; mark condition not met for anything smaller.

compound | category
CCCCC(C(=O)N[C@@H](Cc1ccccc1)C(=O)O)n1cc(C)cc(Cc2ccccc2)c1=O (stereo partly drawn) | condition not met
CCCC[C@H](C(=O)N[C@@H](CC(=O)O)c1ccc2c(c1)OCO2)n1cc(C)c(O)c(Cc2ccccc2)c1=O | condition not met
CCCCC(C(=O)N[C@@H](CC(=O)O)c1cc(OC)c(OC)c(OC)c1)n1cc(C)cc(Cc2ccccc2)c1=O (stereo partly drawn) | condition met
CCCCC(C(=O)N[C@@H](CC(=O)O)c1cccc(OCCC)c1)n1cc(C)cc(Cc2ccccc2)c1=O (stereo partly drawn) | condition met

* * *

- tested-on: α4β1 integrin (Homo sapiens, UniProt P05556+P13612)
- Construct: endogenous in cells; host or cells: Ramos cells
- assay-notes: Inhibition of adhesion of calcein AM-labeled Ramos cells to CS1 (fibronectin) peptide-conjugated ovalbumin
- Format: cell-based
- condition-set: Table 3; Ramos cell adhesion to CS1-conjugated ovalbumin, 30 minutes at 37° C.
pIC50: −log10 of the molar value.
Let's look at some compounds and their measured pIC50.
measured-parameter: pIC50

compound | bound-sign | reported-result
O=C(O)C[C@H](NC(=O)Cc1cccc(Oc2ccccc2)c1)c1ccc2c(c1)OCO2 | < | 4.00
CCCCC(C(=O)N[C@@H](CC(=O)O)c1ccc2c(c1)OCO2)N1C(=O)N(Cc2ccccc2)Cc2ccccc21 (some centres unmarked) | = | 6.40
O=C(O)C[C@H](NC(=O)Cn1cccc(Cc2ccccc2)c1=O)c1ccc2c(c1)OCO2 | = | 6.35
CCCCC(C(=O)N[C@@H](CC(=O)O)c1ccc2c(c1)OCO2)n1cc(C)cc(Cc2ccccc2Cl)c1=O (some centres unmarked) | = | 8.00
CCCCC(C(=O)N[C@@H](CC(=O)O)c1ccc2c(c1)OCO2)n1nc(C)cc(Cc2ccccc2)c1=O (some centres unmarked) | = | 7.22
